assaySystem: T1, human soluble urokinase plasminogen activator receptor (hsuPAR) (human, UniProt Q03405 23-303, limits assumed)
T1 construct: also called human suPAR; rhuPAR-His
T1 sequence (Q03405 23-303 limits assumed): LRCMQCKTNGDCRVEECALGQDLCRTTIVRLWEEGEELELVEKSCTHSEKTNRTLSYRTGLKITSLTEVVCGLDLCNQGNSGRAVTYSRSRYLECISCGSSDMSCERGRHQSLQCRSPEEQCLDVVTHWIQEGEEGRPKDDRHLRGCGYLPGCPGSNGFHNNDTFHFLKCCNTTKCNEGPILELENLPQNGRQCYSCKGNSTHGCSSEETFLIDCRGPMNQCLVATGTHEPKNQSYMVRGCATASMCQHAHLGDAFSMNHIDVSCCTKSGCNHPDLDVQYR
testProtocol: BLI (Octet) off-rate screen of scFv
Recorded koff by entry
Give your result in s⁻¹ as a bare value.

// below: answered binders
binder="suPAR_DB02_B07 (scFv, V domains shown, Screened as scFv) VH: QVQLVQSGAEVKKPGASVKVSCKASGHTFSSYYMHWVRQAPGQGLEWMGWIDPENGNTIYAQKFQGRVTMTRDTSTSTVYMELSSLRSEDTAVYYCARGYDVDWFVYWGQGTLVTVSS VL: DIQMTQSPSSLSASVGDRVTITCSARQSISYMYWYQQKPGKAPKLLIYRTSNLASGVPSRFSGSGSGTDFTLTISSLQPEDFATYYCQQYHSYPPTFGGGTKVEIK" reportedvalue=0.00447
binder="suPAR_DB02_A07 (scFv, V domains shown, Screened as scFv) VH: QVQLVQSGAEVKKPGASVKVSCKASGYNIKDYYIHWVRQAPGQGLEWMGWISPDSGVTNYAQKFQGRVTMTRDTSTSTVYMELSSLRSEDTAVYYCARGYDVDWFVYWGQGTLVTVSS VL: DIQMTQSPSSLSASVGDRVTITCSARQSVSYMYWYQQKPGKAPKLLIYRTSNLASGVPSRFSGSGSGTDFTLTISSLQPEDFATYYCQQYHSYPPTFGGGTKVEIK" reportedvalue=0.00114
binder="suPAR_DB01_H05 (scFv, V domains shown, Screened as scFv) VH: QVQLVQSGAEVKKPGASVKVSCKASGYTFTGNYVHWVRQAPGQGLEWMGWIDHENGNTIYDQKFQGRVTMTRDTSTSTVYMELSSLRSEDTAVYYCARGYDVDWFVYWGQGTLVTVSS VL: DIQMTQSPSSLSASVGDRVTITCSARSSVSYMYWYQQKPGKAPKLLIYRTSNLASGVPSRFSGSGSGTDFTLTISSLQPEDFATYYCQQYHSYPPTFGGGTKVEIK" reportedvalue=0.00152
binder="suPAR_DB01_G07 (scFv, V domains shown, Screened as scFv) VH: QVQLVQSGAEVKKPGASVKVSCKASGNTFTSYYMHWVRQAPGQGLEWMGWIDPENGNTIYDQKFQGRVTMTRDTSTSTVYMELSSLRSEDTAVYYCARGYDVDWFVYWGQGTLVTVSS VL: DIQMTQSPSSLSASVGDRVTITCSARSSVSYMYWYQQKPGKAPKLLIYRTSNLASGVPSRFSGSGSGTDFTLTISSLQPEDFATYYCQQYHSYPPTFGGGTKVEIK" reportedvalue=0.00407
binder="suPAR_DB02_C04 (scFv, V domains shown, Screened as scFv) VH: QVQLVQSGAEVKKPGASVKVSCKASGFNIKDYYIHWVRQAPGQGLEWMGWIDHEGGSTSYDQKFQGRVTMTRDTSTSTVYMELSSLRSEDTAVYYCARGYDVDWFVYWGQGTLVTVSS VL: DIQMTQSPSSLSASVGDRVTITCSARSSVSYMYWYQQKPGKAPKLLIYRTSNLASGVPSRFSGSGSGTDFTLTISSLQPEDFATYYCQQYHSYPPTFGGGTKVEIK" reportedvalue=0.00128

Look up and report measured koff for this entry: suPAR_DB02_C01 (scFv, V domains shown, Screened as scFv) VH: QVQLVQSGAEVKKPGASVKVSCKASGYTFTGYYMHWVRQAPGQGLEWMGWIDPENGSTIYDQKFQGRVTMTRDTSTSTVYMELSSLRSEDTAVYYCARGYDVDWFVYWGQGTLVTVSS VL: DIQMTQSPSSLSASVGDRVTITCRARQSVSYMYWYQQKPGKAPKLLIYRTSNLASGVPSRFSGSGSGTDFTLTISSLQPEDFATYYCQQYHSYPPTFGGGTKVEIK 0.00465

Entry suPAR_DB02_B10 (scFv, V domains shown, Screened as scFv) VH: QVQLVQSGAEVKKPGASVKVSCKASGYTFTNYYMHWVRQAPGQGLEWMGWIDPENGNTSYDQKFQGRVTMTRDTSTSTVYMELSSLRSEDTAVYYCARGYDVDWFVYWGQGTLVTVSS VL: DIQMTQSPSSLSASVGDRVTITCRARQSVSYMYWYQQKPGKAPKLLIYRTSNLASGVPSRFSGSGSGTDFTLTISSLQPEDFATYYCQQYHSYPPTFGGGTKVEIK needs its koff filled in; supply it. 0.00189

Report koff for suPAR_DB02_A03 (scFv, V domains shown, Screened as scFv) VH: QVQLVQSGAEVKKPGASVKVSCKASGYTFTDYYIHWVRQAPGQGLEWMGWIDPENGNTIYAQKFQGRVTMTRDTSTSTVYMELSSLRSEDTAVYYCARGYDVDWFVYWGQGTLVTVSS VL: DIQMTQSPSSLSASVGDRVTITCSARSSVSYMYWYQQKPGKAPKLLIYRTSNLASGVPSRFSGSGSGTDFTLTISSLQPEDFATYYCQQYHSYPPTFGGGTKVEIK 0.00198

Name the recorded koff of the item suPAR_DB02_B06 (scFv, V domains shown, Screened as scFv) VH: QVQLVQSGAEVKKPGASVKVSCKASGDTFTSYYMHWVRQAPGQGLEWMGWIDHEGGSTIYAQQFQGRVTMTRDTSTSTVYMELSSLRSEDTAVYYCARGYDVDWFVYWGQGTLVTVSS VL: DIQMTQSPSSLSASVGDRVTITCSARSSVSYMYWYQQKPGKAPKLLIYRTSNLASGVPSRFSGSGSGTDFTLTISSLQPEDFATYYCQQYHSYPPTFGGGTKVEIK in your answer. 0.00353

Identify measured koff associated with suPAR_DB01_F02 (scFv, V domains shown, Screened as scFv) VH: QVQLVQSGAEVKKPGASVKVSCKASGYTFTNYYVHWVRQAPGQGLEWMGWIDHENGNTIYDQKFQGRVTMTRDTSTSTVYMELSSLRSEDTAVYYCARGYDVDWFVYWGQGTLVTVSS VL: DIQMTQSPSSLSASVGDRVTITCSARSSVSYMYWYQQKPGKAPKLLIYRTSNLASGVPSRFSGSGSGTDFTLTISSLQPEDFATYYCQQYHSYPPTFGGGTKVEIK 0.004
